Hello, the source for this data is BigSolDB 2.1, in case you need it.

conditions: in n-butanol, 283.15 K
MEASUREMENT_KIND: solubility (mole fraction)
Answers are plain numbers.

[Q] Hello, please tell me recorded solubility (mole fraction) for this one: `O=C(O)/C=C/c1ccc(Cl)cc1`
[A] 0.00123

----------
conditions: in acetone, 303.15 K
MEASUREMENT_KIND: solubility (mole fraction)

[Q] Hello, please tell me recorded solubility (mole fraction) for this one: `O=C(O)/C=C/c1ccc(Cl)cc1`
[A] 0.00388

----------
settings: in isopropanol, 283.15 K
MEASUREMENT_KIND: solubility (mole fraction)
Answers are plain numbers.

[Q] Hello, please tell me recorded solubility (mole fraction) for this one: `O=C(O)/C=C/c1ccc(Cl)cc1`
[A] 0.00118
